Test system: MHH-CALL-2 (B-Lymphoblastic Leukemia);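 note: after 72 h of two-drug dosing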
assay.comment: Bliss excess, mean over the matrix (fraction); higher = more synergy
Bliss excess for assorted compounds
Kindly provide the number alone.

[[record]]
compound = "CN(CCO)CC[C@H](CSc1ccccc1)Nc1ccc(S(=O)(=O)NC(=O)c2ccc(N3CCC([C@@H](O)c4ccccc4-c4ccc(Cl)cc4)CC3)cc2)cc1S(=O)(=O)C(F)(F)F [AZD4320] + C[C@@H]1COCCN1C2=NC(=NC(=C2)C3(CC3)[S@](=N)(=O)C)C4=C5C=CNC5=NC=C4 [AZD6738] (first compound max 1 µM, 7x7, partner max 10 µM)"
test_system = "MHH-CALL-2 (B-Lymphoblastic Leukemia)"
experimental_value = 0.0042

[[record]]
compound = "CN(CCO)CC[C@H](CSc1ccccc1)Nc1ccc(S(=O)(=O)NC(=O)c2ccc(N3CCC([C@@H](O)c4ccccc4-c4ccc(Cl)cc4)CC3)cc2)cc1S(=O)(=O)C(F)(F)F [AZD4320] + C=CCn1c(=O)c2cnc(Nc3ccc(N4CCN(C)CC4)cc3)nc2n1-c1cccc(C(C)(C)O)n1 [AZD1775] (first compound max 1 µM, partner max 1 µM)"
test_system = "MHH-CALL-2 (B-Lymphoblastic Leukemia)"
experimental_value = 0.14

[[record]]
compound = "Cn1cnc2c(F)c(Nc3ccc(Br)cc3Cl)c(C(=O)NOCCO)cc21 [Selumetinib] + CCN(CCO)CCCOc1ccc2c(Nc3cc(CC(=O)Nc4cccc(F)c4)[nH]n3)ncnc2c1 [AZD2811] (first compound max 10 µM, 7x7, partner max 1 µM)"
test_system = "MHH-CALL-2 (B-Lymphoblastic Leukemia)"
experimental_value = 0.306

[[record]]
compound = "CN(CCO)CC[C@H](CSc1ccccc1)Nc1ccc(S(=O)(=O)NC(=O)c2ccc(N3CCC([C@@H](O)c4ccccc4-c4ccc(Cl)cc4)CC3)cc2)cc1S(=O)(=O)C(F)(F)F [AZD4320] + Cc1cc2ncnn2cc1Nc1ncc2c(n1)n(C1CCOCC1)c(=O)n2C [AZD7648] (first compound max 1 µM, 7x7, partner max 10 µM)"
test_system = "MHH-CALL-2 (B-Lymphoblastic Leukemia)"
experimental_value = 0.0839

[[record]]
compound = "CC(=O)c1c(C)c2cnc(Nc3ccc(N4CCNCC4)cn3)nc2n(C2CCCC2)c1=O [Palbociclib] + CC1(C)CCC(CN2CCN(c3ccc(C(=O)NS(=O)(=O)c4ccc(NCC5CCOCC5)c([N+](=O)[O-])c4)c(Oc4cnc5[nH]ccc5c4)c3)CC2)=C(c2ccc(Cl)cc2)C1 [Venetoclax] (first compound max 10 µM, 7x7, partner max 1 µM)"
test_system = "MHH-CALL-2 (B-Lymphoblastic Leukemia)"
experimental_value = -0.032


Now let's try a different one.
Problem: Give me measured Bliss excess, please, for this compound: Cn1cnc2c(F)c(Nc3ccc(Br)cc3Cl)c(C(=O)NOCCO)cc21 [Selumetinib] + C[C@@H]1COCCN1C2=NC(=NC(=C2)C3(CC3)[S@](=N)(=O)C)C4=C5C=CNC5=NC=C4 [AZD6738] (first compound max 10 µM, 7x7, partner max 10 µM)
Solution: 0.0085
